tested_system: human ALX receptor (Homo sapiens)
Construct: expressed in transfected cells; host or cells: HEK293 (HEK293-hALXR-Gα16)
assay_name: Intracellular calcium measurements (FLIPR) in HEK293-hALXR-Gα16 cells, agonistic activity
Format: cell-based
run_conditions: values normalized to WKYMVm 10 nM
metric: EC50
// return the numeric value with its unit appended

Ask | Identify EC50 associated with the compound CN1CCC(OC(=O)[C@H]2[C@H](C(=O)Nc3ccc(Br)nc3)[C@@H]3CC[C@H]2C32CC2)C1 (stereo partly drawn) [Example 14]
Reply | 0.0258 µM

Ask | Identify EC50 associated with the compound CN(C)CCCOC(=O)[C@H]1[C@H](C(=O)Nc2ccc(Br)nc2)[C@@H]2CC[C@H]1C21CC1 [Example 21]
Reply | 0.146 µM

Ask | Identify EC50 associated with the compound Cc1cc(CNC(=O)[C@H]2[C@H](C(=O)OCCC3(F)CCNCC3)[C@H]3CC[C@@H]2C32CC2)on1 [Example 49]
Reply | 0.0104 µM

Ask | Identify EC50 associated with the compound Cc1cc(CNC(=O)[C@H]2[C@H](C(=O)OCCC3CCCNC3)[C@H]3CC[C@@H]2C32CC2)no1 (stereo partly drawn) [Example 17]
Reply | 0.0794 µM

Ask | Identify EC50 associated with the compound Cc1cc(CNC(=O)[C@H]2[C@H](C(=O)OCC3(F)CCNCC3)[C@H]3CC[C@@H]2C32CC2)on1 [Example 51]
Reply | 0.0113 µM

Ask | Identify EC50 associated with the compound NCc1cccc(COC(=O)[C@H]2[C@H](C(=O)Nc3ccc(Br)nc3)[C@@H]3CC[C@H]2C32CC2)c1 [Example 45]
Reply | 0.0093 µM

Ask | Identify EC50 associated with the compound Cc1cc(CNC(=O)[C@H]2[C@H](C(=O)OC3CCCC3)[C@H]3CC[C@@H]2C32CC2)no1 [Example 29]
Reply | 0.79 µM

Ask | Identify EC50 associated with the compound Cc1cc(CNC(=O)[C@H]2[C@H](C(=O)OCC3CCNCC3)[C@H]3CC[C@@H]2C32CC2)no1 [Example 3]
Reply | 0.0227 µM

Ask | Identify EC50 associated with the compound Cc1cc(CNC(=O)[C@H]2[C@H](C(=O)OCCC3CCNCC3)[C@H]3CC[C@@H]2C32CC2)no1 [Example 47]
Reply | 0.0097 µM

* * *

tested_system: human ALX receptor (Homo sapiens, UniProt P25090)
Sequence (P25090 1-351): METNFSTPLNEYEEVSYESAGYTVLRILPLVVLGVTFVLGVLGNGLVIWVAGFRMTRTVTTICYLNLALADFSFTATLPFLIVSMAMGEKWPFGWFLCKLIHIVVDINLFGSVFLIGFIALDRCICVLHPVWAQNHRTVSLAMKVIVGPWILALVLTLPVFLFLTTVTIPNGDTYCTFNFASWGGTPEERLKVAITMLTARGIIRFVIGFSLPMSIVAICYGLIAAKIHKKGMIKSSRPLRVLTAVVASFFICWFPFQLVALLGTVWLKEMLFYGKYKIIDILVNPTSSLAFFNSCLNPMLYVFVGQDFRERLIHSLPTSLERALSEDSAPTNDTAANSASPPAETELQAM
assay_name: Intracellular calcium measurements (FLIPR) in HEK293-hALXR-Gα16 cells, agonistic activity
run_conditions: values normalized to WKYMVm 10 nM
pEC50: −log10 of the molar value.
Quick rule for you: pEC50 at 7 or higher means class 1, lower means class 0.

Ask | Is the recorded value of pEC50 equal to or greater than 7 for this molecule? Cc1cc(CNC(=O)[C@H]2[C@H](C(=O)OCC(C)C)[C@H]3CC[C@@H]2C32CC2)no1
Reply | class 0

Ask | Is the recorded value of pEC50 equal to or greater than 7 for this molecule? O=C(OCC[C@@H]1CCCCN1)[C@H]1[C@H](C(=O)Nc2ccc(Br)nc2)[C@@H]2CC[C@H]1C21CC1
Reply | class 1

Ask | Is the recorded value of pEC50 equal to or greater than 7 for this molecule? O=C(OCC1CCNCC1)[C@H]1[C@H](C(=O)Nc2ccc(Br)cc2)[C@@H]2CC[C@H]1C21CC1
Reply | class 1

Ask | Is the recorded value of pEC50 equal to or greater than 7 for this molecule? Cc1cc(CNC(=O)[C@H]2[C@H](C(=O)OCCCN(C)C)[C@H]3CC[C@@H]2C32CC2)no1
Reply | class 0
